Overview of reported RP-LC retention time across a group of molecules:
Assay: gradient 5% acetonitrile 3 min, to 50% in 2 min, to 85% in 15 min, held 3 min, 100 µL/min
Conditions: column: Zorbax Extend-C18 2.1 x 50 mm; eluents: water / acetonitrile, 0.1% formic acid
assay_endpoint: RP-LC retention time (s)

1. O=C1COc2cc(S(=O)(=O)N3CCCC3C(=O)NC3CCCCCC3)c(Cl)cc2N1 (centres undefined) :: 819
2. CC(=O)c1ccc(NC(=O)CN2C(=O)CCn3nc(-c4cn(C)c5ccccc45)cc32)cc1 :: 791
3. CCCn1nc(CNC(=O)c2cccc3[nH]ccc23)c2ccccc21 :: 813
4. O=c1n(Cc2ccc3c(c2)OCO3)nc2c(S(=O)(=O)N3CCc4ccccc4C3)cccn12 :: 922
5. CCN(CC)CCNC(=O)CC1Sc2ccccc2NC1=O (centres undefined) :: 591
6. CCc1ccccc1NC(=O)C1CCCN(c2nc3ccccc3nc2C(F)(F)F)C1 (centres undefined) :: 1200
7. CCc1ccc(OCCS(=O)(=O)Nc2cc(NC(C)=O)ccc2OC)cc1 :: 808
8. Cc1ccc(-c2nccn3cc(C(=O)N4CCN(C5CCCCC5)CC4)nc23)cc1 :: 682
9. COc1cccc(-c2ccc3nc(N4CCC(C(N)=O)CC4)sc3n2)c1 :: 745
